Listed next: entries and their corresponding Systolic blood pressure.
# Tested on: Rattus norvegicus
# protocolDetails: Systolic blood pressure (SBP) in anesthetized spontaneously hypertensive rats (SHR) before administration of 75 mg/kg dose perorally.
# Type: functional
# Design: unit: mmHg
# experimentalSetup: route oral
Please reply with the number alone, leaving off any unit.

- compound: "COc1ccc(CCNCC(O)COc2ccc3c(=O)cc(-c4ccccc4)oc3c2)cc1OC (stereo not drawn)"
  Systolic blood pressure: 204
- compound: "CC(C)NCC(O)COc1cccc2ccccc12 (stereo not drawn)"
  Systolic blood pressure: 212

// next entry
Entry CCCNCC(O)COc1ccc2c(=O)c(Cc3ccccc3)c(-c3ccccc3)oc2c1 (stereo not drawn) , tested on Rattus norvegicus, has a reported Systolic blood pressure of 198
